test system: CHP-134; assay: Growth inhibition of MYCN-amplified human CHP-134 cells assessed as reduction in cell viability measured after 3 days by Celltiter-glo assay; type: functional; settings: CHP-134, 72 h, time 3 day
Readout label: GI50 (nM)
Reply numerically in nM, unit not repeated.

COc1cc(-c2cccn3cc(-c4ccc(F)cc4)nc23)cc(OC)c1OC = 1610
COc1cc(-c2cccn3cc(-c4ccc(C(F)(F)F)cc4)nc23)cc(OC)c1OC = 2090
COc1cc(-c2cc(C)cn3cc(-c4ccc(C)cc4)nc23)cc(OC)c1OC = 381

State the recorded GI50 for this entry: `COc1cc(-c2cccn3cc(-c4ccc(C)cc4)nc23)cc(OC)c1OC` 152

Look at this molecule and give its reported GI50. `COc1cc(-c2cccc3nc(-c4ccc(C)cc4)cn23)cc(OC)c1OC` 3320

Given the molecule `COc1ccc(-c2cn3cccc(-c4cc(OC)c(OC)c(OC)c4)c3n2)cc1` , what is its reported GI50? 511

Given the molecule `COc1c(Br)cc(-c2nccn3cc(-c4ccc(C)cc4)nc23)cc1Br` , what is its reported GI50? 469

Give its GI50 value. Item: `COc1cc(-c2nccn3cc(-c4ccc(C)cc4)nc23)cc(OC)c1OC` 7

* * *

test: Microsomal stability in human liver microsomes assessed as half life; type: ADME, Microsome
Readout label: half-life (min)
Write the answer as a number in min, unit excluded.

Bench note: what half-life did `COc1cc(-c2nccn3cc(-c4ccc(C)cc4)nc23)cc(OC)c1OC` show? 26

Would you kindly share the measured half-life for `COc1c(F)cc(-c2nccn3cc(-c4ccc(C)cc4)nc23)cc1F` ? 36.1

* * *

tested on: CHP-134; assay: Growth inhibition of MYCN-amplified human CHP-134 cells assessed as reduction in cell viability measured after 3 days by Celltiter-glo assay; format: functional; conditions: CHP-134, 72 h, time 3 day
// boundary case: GI50 equal to 0.2 µM maps to Not satisfied; strictly smaller maps to Satisfied

COc1cc(-c2cccn3cc(-c4ccc(Cl)cc4)nc23)cc(OC)c1OC = Not satisfied

I'd appreciate it if you could check whether `Cc1ccc(-c2cn3ccnc(-c4cc(F)cc(F)c4)c3n2)cc1` has GI50 smaller than 0.2 µM. Not satisfied

Strictly below 0.2 µM in GI50? `COc1c(Cl)cc(-c2nccn3cc(-c4ccc(C)cc4)nc23)cc1Cl` Satisfied

For this molecule, is GI50 lower than 0.2 µM? COc1cc2c(c(OC)c1OC)-c1ccc(OC)c(=O)cc1[C@@H](NC(C)=O)CC2 [COLCHICINE] Satisfied

I'd appreciate it if you could check whether `COc1c(F)cc(-c2nccn3cc(-c4ccc(C)cc4)nc23)cc1F` has GI50 smaller than 0.2 µM. Satisfied
